src = patent US20190367619A1

# system.under.test: T1, human galectin-10-His (recombinant human galectin-10 with TEV-cleavable N-terminal His-tag) (human)
# T1 construct: SEC-MALLS: dimer in solution; also called Gal10-His; humanGal10-His
# T1 chain: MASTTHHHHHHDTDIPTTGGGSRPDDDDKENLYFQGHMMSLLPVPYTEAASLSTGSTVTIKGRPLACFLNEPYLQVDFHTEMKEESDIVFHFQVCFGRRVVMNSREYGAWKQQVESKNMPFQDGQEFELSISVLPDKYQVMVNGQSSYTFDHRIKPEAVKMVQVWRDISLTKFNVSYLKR
# experiment.summary: BLI tandem on galectin-10-His; competitor: saturating 6B06 mIgG1 (10 ug/mL)
measured.quantity: binding signal (nm)
Use nm as the unit, but write only the number.

- binder: "6A08 mouse IgG1 (antibody, V domains shown, also called 6A08 mIgG1) VH: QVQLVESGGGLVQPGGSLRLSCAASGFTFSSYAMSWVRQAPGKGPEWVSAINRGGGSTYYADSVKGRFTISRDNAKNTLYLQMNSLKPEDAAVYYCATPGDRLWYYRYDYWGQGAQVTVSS VL: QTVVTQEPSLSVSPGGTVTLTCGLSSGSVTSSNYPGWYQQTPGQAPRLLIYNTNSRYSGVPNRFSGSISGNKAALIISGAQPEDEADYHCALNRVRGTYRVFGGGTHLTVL"
  endpoint.result: 0.05
- binder: "6A05 mouse IgG1 (antibody, V domains shown, also called 6A05 mIgG1) VH: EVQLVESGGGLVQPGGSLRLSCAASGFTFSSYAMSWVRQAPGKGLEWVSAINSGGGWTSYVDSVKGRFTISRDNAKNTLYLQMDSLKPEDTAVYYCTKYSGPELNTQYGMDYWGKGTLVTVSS VL: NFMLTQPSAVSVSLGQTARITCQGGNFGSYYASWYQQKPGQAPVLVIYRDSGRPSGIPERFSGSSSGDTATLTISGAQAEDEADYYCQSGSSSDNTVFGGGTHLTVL"
  endpoint.result: 0

Kindly review the next binder as well.
According to the records, this binder 1D11 mouse IgG1 (antibody, V domains shown, VH on mouse IgG1 heavy chain constant domains (CH1-CH2-CH3), VL on mouse lambda light chain constant domain; also called 1D011; 1D11 mIgG1) VH: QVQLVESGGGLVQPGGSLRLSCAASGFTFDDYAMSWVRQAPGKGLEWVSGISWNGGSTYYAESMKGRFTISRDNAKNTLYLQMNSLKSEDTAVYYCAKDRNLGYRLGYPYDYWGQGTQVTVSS VL: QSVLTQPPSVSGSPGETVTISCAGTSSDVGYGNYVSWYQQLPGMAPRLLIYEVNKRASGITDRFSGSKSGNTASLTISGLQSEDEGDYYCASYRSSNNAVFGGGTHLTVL displays binding signal (nm) of 0
